FYI, the data here is from the RNAGym collection of RNA variant scans (doi:10.1126/science.aae0568).

B1: tRNA (parent)
chain: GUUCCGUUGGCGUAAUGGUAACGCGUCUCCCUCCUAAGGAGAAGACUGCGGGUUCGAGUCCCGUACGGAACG

Variants of: B1
Assay: yeast fitness relative to wild type (ratio to wild type); higher = fitter; tRNA-Arg(CCU), competitive growth, 37 C, YPD
Variants at the floor of the assay were thinned out.
Is yeast fitness at least 0.7? Then Condition met. If not, Condition not met.

Is it the case that A21U A57C G58A A70C has yeast fitness reaching or exceeding 0.7? Condition not met

Proceed to G17A A42G G50A Condition not met

Proceed to A20G G41C Condition met

Proceed to A42G G58A Condition met

Proceed to G6A A21U C62U Condition not met

Proceed to C31G U32G A37U A65U Condition not met

Proceed to G9A C66A Condition met

Proceed to C22G C24G C29U C33U A37C G52A C66U Condition not met

Proceed to A15C G39A A65G A70U Condition not met

Proceed to A37U A42U A65C Condition not met

Proceed to C5A G41A A42C G50C A70G Condition not met

Proceed to C11U A20U A36G C55G Condition not met

Proceed to C29A C55U A69U Condition not met

Proceed to A40G C55U G56A U64G A69U Condition not met

Proceed to A21C G23A C49A C60G G63A Condition not met

Proceed to U7C A21G G41C U53C U64A Condition not met

Proceed to A20G C24G C27U C62A C66A Condition not met

Proceed to G18A A40G Condition met

Proceed to C11A G39A C61U C62A Condition not met

Proceed to U2A C46A Condition met

Proceed to A14G U26C G48A Condition not met

Proceed to G39A G48A Condition met

Proceed to C27A C31A Condition met

Proceed to U32A A37C Condition met

Proceed to A15G C24A G52A Condition not met

Proceed to A14G A70U Condition not met

Proceed to C4U G23C A40U A42G A45G G51C C61U Condition not met

Proceed to A42U G50A C60G Condition not met

Proceed to C34G C55U G63A Condition not met

Proceed to G10A G41A A42C G50C A70G Condition not met

Proceed to G39A G58C Condition met

Proceed to C24G A36G U64C A65U Condition not met

Proceed to U8C C46G G67A Condition not met

Proceed to C46U C49G G51C C66G Condition not met

Proceed to A36G A57G Condition met

Proceed to C27U C34U C49G G56C Condition not met

Proceed to U3C C24U C29G C49U Condition not met

Proceed to G48A G68U A69C Condition not met

Proceed to A15U G38A C46G G56C Condition not met

Proceed to A37U A45C C46A Condition not met

Proceed to A42U U54A G58C Condition not met

Proceed to A15G G41C A43C G67A Condition not met

Proceed to U8A U19C A21C C66U Condition not met

Proceed to A42C A45G Condition met

Proceed to U13G G18C C30U C33G U47G Condition not met

Proceed to G10C U53A Condition not met

Proceed to C27A C31G A42C C61G Condition not met

Proceed to U3G C5U A65U Condition not met

Proceed to A20C C22G U47G G51C G63A G68C Condition not met

Proceed to G23C C66G Condition not met

Proceed to C11U G17A U35A G38A C61G Condition not met

Proceed to U16A G39C Condition not met

Proceed to G23A C62U A69U Condition not met

Proceed to C4U G25A A36C A70G Condition not met

Proceed to U8C G44A U53C C55U A70U Condition not met

Proceed to C5A U19C C27U C29G C34A A42C U54A Condition not met

Proceed to C27U C66U Condition met

Proceed to U8A U32G A36C U47G Condition not met

Proceed to C11A U59A Condition not met

Proceed to G9A C24G C27U G44C C61G Condition not met

Proceed to U3C C5G C11G C66U Condition not met

Proceed to C30U A36C A37G U47C Condition not met

Proceed to A15U A21C G23C C55A Condition not met

Proceed to A14G C30A Condition met

Proceed to U8G C34G C55A C66U Condition not met

Proceed to C29A G41A A43C C49U Condition not met

Proceed to U7G A37U G50C Condition not met

Proceed to U13G G38A Condition met

Proceed to G6C A15G Condition met

Proceed to C5U U47A G48C G51A C61A Condition not met

Proceed to C5A C46G C49U Condition met

Proceed to A15U C31G U54G Condition not met

Proceed to G17A A21G C49U C60A G63A Condition not met

Proceed to C27G A45U C55A Condition not met

Proceed to G17C A20U C33G A70U Condition not met

Proceed to A15G U26G G41A G56A Condition not met

Proceed to A20G C33U C61G G68C Condition not met

Proceed to C30A G56U Condition met

Proceed to C30A A69C Condition met

Proceed to G17C A57G G67A Condition not met

Proceed to C24A U26A C31A C62A Condition not met

Proceed to A20U A43G G58A Condition met

Proceed to G6A A36U C49G C62U Condition not met

Proceed to U16A G39C U54C C55U Condition not met

Proceed to A15U A37C Condition not met

Proceed to C29A G48A C66U Condition not met

Proceed to A20U C22G A40G Condition met

Proceed to C5G G48C C49U U54G C55U C66A Condition not met

Proceed to U8C A15C G41A G52C Condition not met

Proceed to C4U U8C U47A Condition not met
